- Condition Context: basic group
Returns the class for an entry based on its pKa. Class ranges: range A = under 4, range B = from 4 up to 9, range C = 9 and over

Below, 5 compounds whose answers are already recorded.
Nc1cccc2cnccc12    range B
CCCCCCCCCCCCCCCCCCN(CC(C)O)CC(C)O (stereo not given)    range C
CC1=C(CC(C)NCC(O)c2ccc([N+](=O)[O-])cc2)CCC1(C)C (stereo not given)    range B
CN1[C@@H]2CC[C@H]1[C@H](C(=O)[O-])[C@@H](O)C2    range C
COc1ccc2c(c1)cc(C)n2C    range A

Would you mind sorting COc1cc(C)ncn1 into the appropriate category?
range A

Same read-out for COC(=O)Cc1ccccc1N ?
range A

Same read-out for [O-]c1ccncn1 ?
range B

Same read-out for Cc1ccccc1/C=C/c1ccc(N(C)C)cc1 ?
range B

Same read-out for CCCCCNCCCCC ?
range C

Same read-out for C1COCCOCc2n[nH]c(n2)COCCOCCO1 ?
range A

----------
- Condition Context: acidic group
Result Type: pKa
Reply with the value as a number alone.

Recorded pKa of CC[NH+](CC)CCOc1ccccc1C(=O)NO , please.
8.42

Same read-out for O=C(O)[C@H]1CCC[C@H](O)C1 ?
4.82

Same read-out for Nc1ccc(S(=O)(=O)Nc2ncccc2O)cc1 ?
7.6

Same read-out for O=S(=O)([O-])c1cc(O)c2[nH]ncc2c1 ?
8

Same read-out for CC(=O)c1cccc(=O)c(O)c1 ?
6.16

Same read-out for CC1(C)[C@@H]2CC[C@](C(=O)O)(C2)[C@H]1O ?
5.05

Same read-out for N#CC(CCC(=O)O)c1ccccc1 (stereo not given) ?
4.4

Same read-out for O=C(O)C[NH+](CC(=O)O)Cc1ccccc1O ?
2.2

----------
- Condition Context: acidic group
# maps each entry to its pKa
Reply with the value as a number alone.

Here's what some known entries look like.
COc1ccc(-c2nnn[nH]2)cc1    4.23
CC1CC(=O)N(O)C1(C)C (stereo not given)    8.85
Cc1cccc([Se]CC(=O)O)c1    3.78

Recorded pKa of NS(=O)(=O)c1ccc(/N=C/c2ccccc2[O-])cc1 , please.
11.7

Same read-out for CCCCCCCc1c(-c2ccccc2)n[nH]c1O ?
9.2

Same read-out for CC(O)CC(=O)O (stereo not given) ?
4.5

Same read-out for NC(=O)NS(=O)(=O)c1ccc(N)cc1 ?
5.41

Same read-out for Nc1nc2nc[n-]c2c(N)[n+]1[O-] ?
12

Same read-out for COC(=O)c1cc(O)c(O)c(O)c1C[NH+](C)C ?
6.8

Same read-out for CC1NCCc2c1[nH]c1ccc(Cl)cc21 (stereo not given) ?
15.2

Same read-out for CC#CC#CCC(=O)O ?
3.23

Same read-out for Cc1ccc(S(=O)(=O)NCCC(=[NH2+])N(C)C)cc1 ?
9.84

Same read-out for Cn1c(=O)c2cn[nH]c2n(C)c1=O ?
9.26

Same read-out for CCCNC(O)=S ?
0.52

Same read-out for C[C@@H]1C[C@@H]([C@H](O)CC2CC(=O)NC(=O)C2)C(=O)[C@@H](C)C1 ?
11.2

Same read-out for CCc1cccc2ccc(O)cc12 ?
9.54

Same read-out for CCCOC(=S)NC(C)=O ?
9.34

Same read-out for CNC(=O)/C=C(/C)C(=O)O ?
3.23

Same read-out for ONc1cc[n+](O)c2ccccc12 ?
3.89

Same read-out for O=C1C=C(S(=O)(=O)[O-])c2[nH]ncc2/C1=N/O ?
7.75

Same read-out for N#Cc1cccc(-c2nnn[nH]2)c1 ?
3.45

Same read-out for O=C(O)C[NH+](CCNS(=O)(=O)c1ccc(CCBr)cc1)CC(=O)O ?
2.15

Same read-out for CCC#CC#CC(=O)O ?
1.91

Same read-out for CO[n+]1ccccc1O ?
-1.3

Same read-out for O=C(O)c1cccc(S)c1 ?
3.96

Same read-out for Sc1ccc(Cl)cc1 ?
5.82

Same read-out for C/C=C\C=C/C(=O)O ?
4.51

Same read-out for O=C(O)[C@@H]1CC[C@H](C(=O)O)[Se]1 ?
3.55

Same read-out for COc1cc(S(C)=O)ccc1-c1nc2ncncc2[nH]1 (stereo not given) ?
8.91

Same read-out for COc1cc(OC)c2c(c1Cl)O[C@]1(C(=O)CC(=O)C[C@@H]1C)C2=O ?
4.49
